assay: Caffeine pharmacokinetics in saliva/plasma of untreated human volunteers (baseline); type: in vivo; details: male, human, plasma (calculated from saliva concentrations), po, 200 mg, caffeine 200 mg single oral dose, untreated volunteers
assay.metric: Cmax (ng/mL)
Number in ng/mL, nothing else.

(Q) Please list Cmax recorded for the compound Cn1c(=O)c2c(ncn2C)n(C)c1=O [Caffeine, caffeine]
(A) 5100

====

Target: CYP1A2 (Homo sapiens)
Sequence (P05177 1-516): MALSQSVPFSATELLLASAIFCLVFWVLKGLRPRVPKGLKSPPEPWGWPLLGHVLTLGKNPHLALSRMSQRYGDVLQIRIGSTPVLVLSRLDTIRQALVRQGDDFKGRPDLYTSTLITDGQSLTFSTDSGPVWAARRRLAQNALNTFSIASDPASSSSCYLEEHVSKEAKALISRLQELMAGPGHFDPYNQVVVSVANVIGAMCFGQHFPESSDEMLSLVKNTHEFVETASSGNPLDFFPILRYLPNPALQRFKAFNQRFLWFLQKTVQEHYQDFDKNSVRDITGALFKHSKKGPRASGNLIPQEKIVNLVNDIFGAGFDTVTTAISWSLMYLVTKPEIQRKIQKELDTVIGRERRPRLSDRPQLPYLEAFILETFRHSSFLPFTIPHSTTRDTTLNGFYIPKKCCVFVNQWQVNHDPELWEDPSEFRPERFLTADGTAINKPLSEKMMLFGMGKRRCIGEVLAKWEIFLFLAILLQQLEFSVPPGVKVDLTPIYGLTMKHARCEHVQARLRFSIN
Test: Pre-incubation time- and furanocoumarin concentration-dependent inhibition of caffeine metabolism in HLMs
Settings: human, human liver microsomes, probe caffeine (6.4 µM non-labeled + 0.2 µCi 14C-caffeine)
assay.metric: kinact (s⁻¹)
Number in s⁻¹, nothing else.

(Q) Please list kinact recorded for the molecule COc1c2ccoc2cc2oc(=O)ccc12
(A) 0.00583
